Molecular target: LAT1 in MCF-7 human breast cancer cells (Homo sapiens, UniProt Q01650)
Construct: wild-type MCF-7 human breast cancer cell line; endogenous in cells; host or cells: MCF-7 human breast cancer cells (wild type)
Sequence (Q01650 whole entry): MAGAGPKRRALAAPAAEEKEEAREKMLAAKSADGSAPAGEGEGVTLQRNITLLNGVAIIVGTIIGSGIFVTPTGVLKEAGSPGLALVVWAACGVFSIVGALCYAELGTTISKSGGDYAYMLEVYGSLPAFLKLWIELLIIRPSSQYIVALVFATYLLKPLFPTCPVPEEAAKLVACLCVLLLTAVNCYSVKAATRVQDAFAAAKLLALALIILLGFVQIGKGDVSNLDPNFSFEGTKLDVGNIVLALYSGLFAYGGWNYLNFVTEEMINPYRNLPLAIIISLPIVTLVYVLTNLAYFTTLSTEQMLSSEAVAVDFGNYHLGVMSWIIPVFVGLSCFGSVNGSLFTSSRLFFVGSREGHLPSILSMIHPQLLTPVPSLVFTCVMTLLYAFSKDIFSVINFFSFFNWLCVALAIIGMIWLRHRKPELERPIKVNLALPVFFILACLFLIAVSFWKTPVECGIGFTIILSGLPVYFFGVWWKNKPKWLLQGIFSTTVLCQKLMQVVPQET
Sequence (P08195 102-630 partner): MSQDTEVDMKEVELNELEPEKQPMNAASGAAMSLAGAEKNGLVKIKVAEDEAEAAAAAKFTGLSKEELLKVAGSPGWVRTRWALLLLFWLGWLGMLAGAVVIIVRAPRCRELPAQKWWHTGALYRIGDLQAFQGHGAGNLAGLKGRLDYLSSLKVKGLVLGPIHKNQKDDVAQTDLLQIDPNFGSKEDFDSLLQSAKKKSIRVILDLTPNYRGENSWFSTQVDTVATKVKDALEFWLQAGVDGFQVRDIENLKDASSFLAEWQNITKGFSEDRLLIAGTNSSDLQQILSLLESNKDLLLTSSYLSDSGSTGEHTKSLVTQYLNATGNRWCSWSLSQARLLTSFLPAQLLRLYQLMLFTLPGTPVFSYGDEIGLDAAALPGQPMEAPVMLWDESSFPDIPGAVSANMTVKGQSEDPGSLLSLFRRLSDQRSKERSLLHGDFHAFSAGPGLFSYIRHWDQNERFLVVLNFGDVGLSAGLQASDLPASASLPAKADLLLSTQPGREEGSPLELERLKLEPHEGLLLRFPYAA
Assay: cis-inhibition of [14C]-L-leucine uptake in MCF-7 cells
Format: cell-based
Settings: MCF-7 cells
Method: Cells were cultured in DMEM (Gibco, ThermoFisher Scientific, Waltham, MA, USA) supplemented with L-glutamine (2 mM; ThermoFisher Scientific, Waltham, MA, USA), heat-inactivated fetal bovine serum (10%; Gibco, ThermoFisher Scientific, Waltham, MA, USA), penicillin (50 U/mL)-streptomycin (50 μg/mL) solution (ThermoFisher Scientific, Waltham, MA, USA), and hygromycin B solution (100 μg/mL) for transfected cells. […]
Measured pIC50, listed per entry.
# pIC50 is unitless: minus log10 of the molar concentration; print number only

Look up and report pIC50, with LAT1 in MCF-7 human breast cancer cells (Homo sapiens, UniProt Q01650) as system, for CC(C(=O)Nc1cccc(C[C@H](N)C(=O)O)c1)c1ccc(-c2ccccc2)c(F)c1 (stereo partly drawn) 5.66

Continuing:
Retrieve pIC50 on LAT1 in MCF-7 human breast cancer cells (Homo sapiens, UniProt Q01650); query CC(C(=O)Oc1cccc(C[C@H](N)C(=O)O)c1)c1cccc(C(=O)c2ccccc2)c1 (stereo partly drawn) 6.40

Enter recorded pIC50 with LAT1 in MCF-7 human breast cancer cells (Homo sapiens, UniProt Q01650) for N[C@@H](Cc1cccc(C(=O)NCCc2ccc(O)c(O)c2)c1)C(=O)O here. 5.48

Reference for the values: paper PMC9811466
